experimentalSystem: pooled human IgG
measuredMetric: Enzyme Activity Endpoint Assay: Fab′2 (ng/µL)
One number for each entry, in ng/µL.

INSERT INTO measurements (protein, measuredmetric, unitname, measvalue) VALUES
  ('PRT-562 (protein) MANQEIRYSKATPSHITSVWTKGVTPPEQFIQNEDVLHAPYIANQGWYDITKTFNGKDDLLCGAATAGNMLHWWFDQNKEQIENYLKKHPEKQKINFNGEQMFDVKEAIDTKDSQTNSALFSYFKDKAFPYLSTKHLGVFPDHVIDMFINGYRLSLTNHGPTPVKEQTKDPRGGIFDAVFTRGDQSKLLTSRHDFKEKTLNEISQLIKQELTEGKALGLSHTYANVRINHVINLWGADFNAEGNLEAIYVTDSDSNASIGMKKYYVGVNSAGKVAISAKEIEGDNIGAQVLGLFTLSTGQDIWQQTNLEHHHHHH', 'Enzyme Activity Endpoint Assay: Fab′2', 'ng/µL', 705);

For every record below, what is its Enzyme Activity Endpoint Assay: Fab′2?
1. PRT-37 (protein) MANQEIRYSEVTPYHVTSVWTKGVTPPANFTQGEDVFHAPYVANQGWYDITKTFNGKDDLLCGAATAGNMLHWWFDQNKDQIKRYLEEHPEKQKINFNGEQMFDVKEAIDTKNHQLDSKLFEYFKEKAFPYLSTKHLGVFPDHVIDMFINGYRLSLTNHGPTPVKEGSKDPRGGIFDAVFTRGDQSKLLTSRHDFKEKTLKEISDLIKKELTEGKALGLSHTYANVRINHVINLWGADFDSNGNLKAIYVTDSDSNASIGMKKYFVGVNSAGKVAISAKEIKEDNIGAQVLGLFTLSTGQDSWNQTN
2. PRT-24 (protein) MANQEIRYSEVTPYHVTSVWTKGVTPPANFTQGEDVFHAPYVANQGWYDITKTFNGKDDLLCGAATAGNMLHWWFDQNKDQIERYLKEHPEKQKINFNGEQMFDVKEAIDTKDSQTDSKLFEYFKEKAFPYLSTKHLGVFPDHVLDMFINGYRLSLTNHGPTPVKEGSKDPRGGIFDAVFTRGDQSKLLTSRHDFKEKTLKEISDLIKKELTEGKALGLSHTYANVRINHVINLWGADFDSNGNLKAIYVTDSDSNASIGMKKYFVGVNSAGKVAISAKEIKEDNIGAQVLGLFTLSTGQDIWNQTN
3. PRT-552 (protein) MANQEIRYSEETPKTITSVWTKGVTPPTDFIQNEDVLHAPYIANQGWYDITKTFNGKDDLLCGAATAGNMLHWWFDQNKEEIENYLKKHPEKQKINFNGEQMFDVKEAIDTKDSQTDSALFEYFKDKAFPYLSTKHLGVFPDHVIDMFINGYRLSLTNHGPTPVKRGTKDPRGGIFDAVFTRGDQSKLLTARHDFKEKTLNEISDLIKQELTEGKALGLSHTYANVRINHVINLWGADFNSEGNLEAIYVTDSDSNASIGMKKYYVGVNAAGKVAISAKEIEGDNIGAQVLGLFTLSTGQDIWNQTNLEHHHHHH
4. PRT-5 (protein) MANQEIRYSEVTPYHVTSVWTKGVTPPANFTQGEDVFHAPYVANQGWYDITKTFNGKDDLLCGAATAGNMLHWWFDQNKDQIERYLKKHPEKQKINFNGEQMFDVKEAIDTKNSQLDSKLFEYFKEKAFPYLSTKHLGVFPDHVIDMFINGYRLSLTNHGPTPVKEGSKDPRGGIFDAVFTRGDQSKLLTSRHDFKEKNLKEISDLIKKELTEGKALGLSHTYANVRINHVINLWGADFDSNGNLEAIYVTDSDSNASIGMKKYFVGVNSAGKVAISAKEIKEDNIGAQVLGLFTLSTGQDIWNQTN
5. PRT-529 (protein) MANQEIRYSEETPKTITSVWTKGVTPPTDFIKNEDVLHAPYIANQGWYDITKTFNGKDDLLCGAATAGNMLHWWFDQNKEEIENYLKKHPEKQKINFNGEQMFDVKEAIDTKDSQTDSALFEYFKDKAFPNLSTKHLGVMPDLVLDMFINGYYLSLGKHGPTPVKRGTKDPRGGIFDAVFTRGDQTKLLTARHDFKEKTLNEISDLIKQELTEGKALALSHTYANVRINHVINLWGADFNSEGNLEAIYVTDSDSNASIGMKKYYVGVNAAGKVAISAKEIEGDNIGAQVLGLFTLSTGQDIWEQTNLEHHHHHH

Solution:
[4, 52, 439, 34, 0]

For every record below, what is its Enzyme Activity Endpoint Assay: Fab′2?
1. PRT-569 (protein) MANQEIRYSKATPSHITSVWTKGVTPPEQFIYNEDVLHAPYIANQGWYDITKTFNGKDDLLCGAATAGNMLHWWFDQNKEQIENYLKKHPEKQKINFNGEQMFDVKEAIDTKDSQTNSALFSYFKDKAFPYLSTKHLGVFPDHVIDMFINGYRLSLTNHGPTPVKEQTKDPRGGIFDAVFTRGDQSKLLTSRHDFKEKTLNEISQLIKQELTEGKALGLSHTYANVRINHVINLWGADFNAEGNLEAIYVTDSDSNASIGMKKYYVGVNSAGKVAISAKEIEGDNIGAQVLGLFTLSTGQDIWQQTNLEHHHHHH
2. PRT-52 (protein) MANQEIRYSEVTPYHVTSVWTKGVTPPANFTQGEDVFHAPYVANQGWYDINKTFNGGDDLLCGAATAGNMLHWWFDQNKEYIDRYLKEHPEKQKINFNGEQMFDVKEAIDTKNSQTDSKLFEYFKEKAFPYLSTKHLGVFPDLVIDMFINGYRLSLTNHGPTPVKEGSKDPRGGFFDAVFTRGDQSKLLTSRHDFKEKNYNEISDLIKKELKEGKALGLSHTYANVRINHVINLWGADFDSNGNLKAIYVTDSDSNASVGMKKYFVGVNSAGKVAISAKEIKEDNIGAQVLGLFTLSTGQDSWNQTN

Solution:
1. 723
2. 0
